Consider the following IC50 values measured on Human CD38 (Homo sapiens (Human), UniProt P28907).
Sequence (P28907 whole entry): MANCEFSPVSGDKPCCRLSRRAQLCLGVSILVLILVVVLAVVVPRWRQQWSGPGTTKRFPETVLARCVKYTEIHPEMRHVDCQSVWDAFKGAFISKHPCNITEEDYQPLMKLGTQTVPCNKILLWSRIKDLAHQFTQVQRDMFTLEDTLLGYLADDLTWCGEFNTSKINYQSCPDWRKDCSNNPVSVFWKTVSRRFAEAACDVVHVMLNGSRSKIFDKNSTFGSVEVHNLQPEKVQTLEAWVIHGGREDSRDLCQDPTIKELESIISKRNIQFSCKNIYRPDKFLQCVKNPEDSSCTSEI

{"COMPOUND": "COCCN[C@H]1CC[C@H](NC(=O)c2nc(-n3ccnc3)nc3cc[nH]c23)CC1", "IC50": "10 to 100 nM"}
{"COMPOUND": "CC(C)(N[C@H]1CC[C@H](NC(=O)c2nc(-n3ccnc3)nc3cn[nH]c23)CC1)C(F)(F)F", "IC50": "10 to 100 nM"}
{"COMPOUND": "COCCO[C@H]1C[C@H](NC(=O)c2nc(-n3ccnc3)nc3cc[nH]c23)C1", "IC50": "10 to 100 nM"}
{"COMPOUND": "O=C(N[C@H]1CC[C@](O)(C(F)(F)F)CC1)c1nc(-n2ccnc2)nc2cc[nH]c12 [Example 120a]", "IC50": "< 10 nM"}
